Reference source: patent US11084803B2

subject of test: recombinant HDAC1 (Homo sapiens)
Construct: FLAG (C); purchased BPS Biosciences (San Diego, Calif.); host or cells: insect cells (Sf9)
Sequence (Q13547 whole entry): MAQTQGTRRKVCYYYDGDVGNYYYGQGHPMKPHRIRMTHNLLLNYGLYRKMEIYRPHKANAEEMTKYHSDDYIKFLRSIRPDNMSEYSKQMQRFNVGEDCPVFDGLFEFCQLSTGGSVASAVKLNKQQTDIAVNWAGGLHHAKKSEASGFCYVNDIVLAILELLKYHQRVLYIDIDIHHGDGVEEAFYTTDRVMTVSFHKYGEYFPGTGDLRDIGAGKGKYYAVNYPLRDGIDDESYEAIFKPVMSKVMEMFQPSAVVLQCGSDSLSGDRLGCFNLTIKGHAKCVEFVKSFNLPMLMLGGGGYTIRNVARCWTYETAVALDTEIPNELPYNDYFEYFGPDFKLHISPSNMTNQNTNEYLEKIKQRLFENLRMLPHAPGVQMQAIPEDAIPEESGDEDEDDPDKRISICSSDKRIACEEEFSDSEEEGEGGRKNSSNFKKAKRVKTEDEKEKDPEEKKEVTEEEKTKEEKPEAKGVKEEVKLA
experiment: Secondary HDAC1 microfluidics-based assay, 8-point dose response, substrate FAM-TSRHKacKL
Assay type: biochemical
measurement context: 8-point dose response 50 μM to 0.02 μM, 6 h; read-out: Maximum activation % during dose response (50 μM maximum)
Listed compounds paired with reported Emax
The response must be a number in % with no trailing unit.

Example cases with answers are listed next.
O=C(NC(=S)Nc1ccc(-c2ccc(CO)o2)cc1)c1cccs1 ... 221
Cc1ccc(C(=O)NC(=S)Nc2ccc(-c3ccc(CO)o3)cc2)cc1 ... 287
COc1cc(O)c2c(=O)cc(-c3ccc(OC)c(-c4c(O)cc(O)c5c(=O)cc(-c6ccc(O)cc6)oc45)c3)oc2c1 [ginkgetin, reference compound] ... 23
Cc1cccc2c1[nH]c1nc(N/N=C/c3ccc(O)c(O)c3)nnc12 ... 34
CCC(=O)C1(Sc2nc3ccccc3[nH]2)CC(C)(C)OC1=O (stereo not drawn) ... 12

Next compound, please.
Form: compound = `COc1ccc(CNc2cc(C)ccc2C)c(OC)c1` ; Emax = 26
